protocol text: PKPlus two-compartmental PK model fitted to reference product plasma data
Parameters: species or system human
reported conditions: human, plasma, oral, 2 mg
assay readout: Vd

# structure smiles, assay readout, observed measurement
records = [
    ("O=C(O)C[C@H](O)C[C@H](O)/C=C/c1c(C2CC2)nc2ccccc2c1-c1ccc(F)cc1", "Vd", "43.2 L"),
]

----------
protocol text: PKPlus two-compartmental PK model fitted to reference product plasma data
Design: species or system human
reported conditions: human, plasma, oral, 2 mg
assay readout: clearance (mL/min)

# compound, observed measurement
data = [
    ("O=C(O)C[C@H](O)C[C@H](O)/C=C/c1c(C2CC2)nc2ccccc2c1-c1ccc(F)cc1 [pitavastatin calcium]", 343),
]

Numbers sourced from paper PMC9841298.
